- Experiment: Oral administration pharmacokinetic studies in rats (thiorphan plasma concentration, HPLC)
- Type: in vivo, Sprague Dawley rats
- Experimental parameters: Sprague Dawley, rat, plasma, iv, 13.4 mg/kg, individual rats; thiorphan i.v. 13.4 mg/kg
Quantity name: Cmax (ng/mL)
Give bare numbers, in ng/mL.

Task: Endpoint output: Cmax of O=C(O)CNC(=O)C(CS)Cc1ccccc1 (stereo not shown) . Value?
Output: 15900

---

- Experiment: Oral administration pharmacokinetic studies in rats (thiorphan plasma concentration, HPLC)
- Format: in vivo, Sprague Dawley rats
- Experimental parameters: Sprague Dawley, rat, plasma, iv, 13.4 mg/kg, average of 3 rats; thiorphan i.v. 13.4 mg/kg; read-out: AUCinf (thiorphan), Avg
Quantity name: AUC(0-inf) (ng·h/mL)
Numbers only, in ng·h/mL.

Task: What measured AUC(0-inf) goes with O=C(O)CNC(=O)C(CS)Cc1ccccc1 (stereo not shown) ?
Output: 1710

Where do these numbers come from? They come from patent US20190021992A1.
